Listed here: molecules with reported AC50 for D(3) dopamine receptor (Homo sapiens).
reportedMetric: AC50

>>> print(df.to_string())
                                   molecule  reportedmetric  observedresult
0        CCN(CC)CCCN(c1ccccc1)C1Cc2ccccc2C1            AC50         3.15 µM
1  OCCN(CCO)c1nc(N2CCCCC2)c2nc(N(CCO)CCO)nc(N3CCCCC3)c2n1            AC50         > 30 µM
2     Cc1nnc2n1-c1ccc(Cl)cc1C(c1ccccc1)=NC2            AC50         > 10 µM
3  CCc1ccc(C(=O)C(C)CN2CCCCC2)cc1 (stereo not given)            AC50          9.4 µM
4  CC1CC(OC(=O)C(O)c2ccccc2)CC(C)(C)C1 (stereo not given) [CYCLANDELATE]            AC50         > 30 µM
5  O=C(Cc1cccs1)N[C@@H]1C(=O)N2C(C(=O)[O-])=C(C[n+]3ccccc3)CS[C@H]12            AC50         > 30 µM
6  Nc1c2c(nc3ccccc13)CCCC2O (stereo not given)            AC50         > 30 µM
7        NS(=O)(=O)c1ccc(N2CCCCS2(=O)=O)cc1            AC50         > 30 µM
8                              CNCCc1ccccn1            AC50         > 30 µM
9  O=C1CC2(CCCC2)CC(=O)N1CCCCN1CCN(c2ncccn2)CC1            AC50        0.048 µM
